- Tested on: Acremonium chrysogenum high-cephalosporin-yielding (HY) RNCM F-4081D
- ASSAY REMARKS: Fungal growth inhibition (drop-dilution, CD agar), HY strain
- Format: cell-based
- MEASUREMENT CONDITIONS: Hapsidospora chrysogena, 336 h, read-out: Growth inhibition
# Lookup of reported inhibition at 5000 µM keyed by entry

// below: answered compounds
NCCCON [APA, 1-aminooxy-3-aminopropane]	44%
N=C(N)NCCCON [AO-Agm, 1-aminooxy-3-guanidinopropane]	49%
NCCC[C@](N)(C(=O)O)C(F)F [DFMO, α-(Difluoromethyl)ornithine]	41%

// next entry
inhibition at 5000 µM on Acremonium chrysogenum high-cephalosporin-yielding (HY) RNCM F-4081D for N=C(N)NCCCC(N)(C(=O)O)C(F)F (racemic) [DFMA, D,L-α-(difluoromethyl)arginine] is 13%

* * *

- SYSTEM UNDER TEST: E. coli ADC (Escherichia coli)
- Construct: The kinetic parameters determined for the partially purified biosynthetic ADC from E. coli; endogenous in cells; host or cells: E. coli DH5α (39-53% ammonium sulphate fraction of the lysate, desalted)
- Sequence (P21170 1-658): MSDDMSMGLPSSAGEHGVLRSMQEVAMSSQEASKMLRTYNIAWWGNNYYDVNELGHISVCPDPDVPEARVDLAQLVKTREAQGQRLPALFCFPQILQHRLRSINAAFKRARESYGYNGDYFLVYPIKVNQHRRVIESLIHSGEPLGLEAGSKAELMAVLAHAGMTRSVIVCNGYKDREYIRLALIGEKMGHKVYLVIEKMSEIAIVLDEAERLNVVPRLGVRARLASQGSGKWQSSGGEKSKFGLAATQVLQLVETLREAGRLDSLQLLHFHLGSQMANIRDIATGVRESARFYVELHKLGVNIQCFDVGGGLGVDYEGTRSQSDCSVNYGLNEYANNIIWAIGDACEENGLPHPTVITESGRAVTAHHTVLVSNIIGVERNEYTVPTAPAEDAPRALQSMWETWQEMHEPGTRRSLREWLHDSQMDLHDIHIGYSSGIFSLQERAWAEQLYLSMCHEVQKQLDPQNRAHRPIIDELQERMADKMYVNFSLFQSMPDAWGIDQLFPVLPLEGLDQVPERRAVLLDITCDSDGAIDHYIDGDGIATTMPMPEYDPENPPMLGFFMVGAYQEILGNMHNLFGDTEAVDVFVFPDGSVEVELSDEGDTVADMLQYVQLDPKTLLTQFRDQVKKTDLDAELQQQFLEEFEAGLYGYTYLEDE
- ASSAY REMARKS: E. coli ADC activity assay (HPLC of agmatine)
- Assay type: biochemical
- MEASUREMENT CONDITIONS: 0.01 mM PLP; 15 min preincubation; 0.15 mM L-Arg
EXPERIMENTAL READOUT: IC50 (µM)
Enter your answer as a number in µM; do not include the unit.

Noted for N=C(N)NCCCON [AO-Agm, 1-aminooxy-3-guanidinopropane] : its IC50 reads 0.026

* * *

- SYSTEM UNDER TEST: E. coli ADC (Escherichia coli, UniProt P21170)
- Construct: The kinetic parameters determined for the partially purified biosynthetic ADC from E. coli; endogenous in cells; host or cells: E. coli DH5α (39-53% ammonium sulphate fraction of the lysate, desalted)
- ASSAY REMARKS: E. coli ADC activity assay (HPLC of agmatine)
- Format: biochemical
- MEASUREMENT CONDITIONS: 1 mM PLP; 15 min preincubation; 0.15 mM L-Arg
- Method: The purification was performed using a modified procedure of earlier publication. E. coli strain DH5α was grown in Luria-Bertani broth at +37 °C with shaking (200 rpm) overnight. […] The protein concentration was measured with Bio-Rad protein reagent, and the partially purified enzyme preparation was mixed with 20% glycerol and aliquoted for storage at −80 °C. […] The kinetic parameters and IC50 values were determined with the aid of GraphPad Prism version 5.03 using nonlinear regression analysis.
EXPERIMENTAL READOUT: IC50 (µM)
Record the value in µM, omitting the unit from your answer.

The compound N=C(N)NCCCON [AO-Agm, 1-aminooxy-3-guanidinopropane] showed IC50 equal to 0.089

* * *

- SYSTEM UNDER TEST: mouse kidney ODC (Mus musculus)
- Construct: from tissue; host or cells: C57Bl/6J male mouse kidney, 12,000 g supernatant of the homogenate
- Sequence (P00860 1-461): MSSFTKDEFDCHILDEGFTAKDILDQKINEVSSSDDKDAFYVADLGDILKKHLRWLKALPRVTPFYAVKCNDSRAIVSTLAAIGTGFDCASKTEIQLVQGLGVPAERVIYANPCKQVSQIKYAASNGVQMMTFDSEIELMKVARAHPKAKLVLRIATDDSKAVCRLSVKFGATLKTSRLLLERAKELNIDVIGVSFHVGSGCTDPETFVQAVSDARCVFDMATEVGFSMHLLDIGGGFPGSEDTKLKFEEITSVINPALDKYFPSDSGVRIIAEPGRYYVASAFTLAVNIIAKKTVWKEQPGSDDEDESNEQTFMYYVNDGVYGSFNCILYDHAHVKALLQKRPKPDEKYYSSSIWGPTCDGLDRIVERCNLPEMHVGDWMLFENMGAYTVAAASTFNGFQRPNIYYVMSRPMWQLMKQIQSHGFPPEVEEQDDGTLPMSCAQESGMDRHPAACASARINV
- ASSAY REMARKS: Assay of mouse kidney ODC activity
- Format: biochemical
- MEASUREMENT CONDITIONS: 0.4 mM L-Orn; 0.4 mM PLP
EXPERIMENTAL READOUT: pIC50
Notebook: values listed as pIC50 are -log10 of the concentration (mol/L).

According to the records, this compound `N=C(N)NCCCON` displays pIC50 of 5.28

Values were extracted from paper PMC7175277.
